# tested.target: T1, HLA-A*0201 (human)
# T1 construct: Class I MHC molecule of the ProImmune REVEAL assay; also called HLA-A2
# assay.comment: REVEAL off rate analysis of peptide-MHC pentamers, 37 C, 0, 2 and 24 h

{"binder": "SQLNSNPEL (synthetic nine-residue peptide of human CD133 (ProImmune)) [CD133 peptide SQLNSNPEL (SEQ ID NO:18)]", "t1/2 [h]": 2.37}
{"binder": "SLDFAQNFI (synthetic nine-residue peptide of human CD133 (ProImmune)) [CD133 peptide SLDFAQNFI (SEQ ID NO:15)]", "t1/2 [h]": 15.5}
{"binder": "LVLGSLLLL (synthetic nine-residue peptide of human CD133 (ProImmune)) [CD133 peptide LVLGSLLLL (SEQ ID NO:17)]", "t1/2 [h]": 8.25}
{"binder": "ILCCVLGLL (synthetic nine-residue peptide of human CD133 (ProImmune)) [CD133 peptide ILCCVLGLL (SEQ ID NO:19)]", "t1/2 [h]": 5.63}
{"binder": "RVLDTPYLL (synthetic nine-residue peptide of human CD133 (ProImmune)) [CD133 peptide RVLDTPYLL (SEQ ID NO:14)]", "t1/2 [h]": 3.51}
{"binder": "ELVHIFLYV (synthetic nine-residue peptide of human CD133 (ProImmune)) [CD133 peptide ELVHIFLYV (SEQ ID NO:16)]", "t1/2 [h]": 6.86}
{"binder": "VLDEIKSMA (synthetic nine-residue peptide of human CD133 (ProImmune)) [CD133 peptide VLDEIKSMA (SEQ ID NO:10)]", "t1/2 [h]": 1.43}
{"binder": "NLLSFAYDL (synthetic nine-residue peptide of human CD133 (ProImmune)) [CD133 peptide NLLSFAYDL (SEQ ID NO:12)]", "t1/2 [h]": 1.83}
{"binder": "FITNNTSSV (synthetic nine-residue peptide of human CD133 (ProImmune)) [CD133 peptide FITNNTSSV (SEQ ID NO:13)]", "t1/2 [h]": 20}
